# Measured on: BRAF (Homo sapiens (Human), UniProt P15056)
# Sequence (P15056 whole entry): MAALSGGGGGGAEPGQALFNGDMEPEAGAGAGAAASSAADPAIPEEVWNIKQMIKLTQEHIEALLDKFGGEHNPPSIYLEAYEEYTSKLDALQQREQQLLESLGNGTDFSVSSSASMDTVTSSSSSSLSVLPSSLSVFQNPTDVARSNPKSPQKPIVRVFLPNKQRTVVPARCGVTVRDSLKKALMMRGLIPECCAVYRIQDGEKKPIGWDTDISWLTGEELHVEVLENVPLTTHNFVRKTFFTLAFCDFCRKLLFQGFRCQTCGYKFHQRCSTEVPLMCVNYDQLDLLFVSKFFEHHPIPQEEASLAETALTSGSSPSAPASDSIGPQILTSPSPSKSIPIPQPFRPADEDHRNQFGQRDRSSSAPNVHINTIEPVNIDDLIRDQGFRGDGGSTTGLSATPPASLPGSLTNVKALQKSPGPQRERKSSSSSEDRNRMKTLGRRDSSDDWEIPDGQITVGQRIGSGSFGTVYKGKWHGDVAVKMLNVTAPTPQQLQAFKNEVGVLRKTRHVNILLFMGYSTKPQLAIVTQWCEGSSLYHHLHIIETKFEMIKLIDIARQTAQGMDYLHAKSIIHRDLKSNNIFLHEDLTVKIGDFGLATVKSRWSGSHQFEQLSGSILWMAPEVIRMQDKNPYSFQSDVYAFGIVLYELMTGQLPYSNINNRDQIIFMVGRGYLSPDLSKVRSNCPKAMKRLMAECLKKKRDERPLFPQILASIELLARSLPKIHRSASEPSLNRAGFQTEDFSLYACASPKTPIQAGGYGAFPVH
# Procedure text: Z′-LYTE kinase inhibition assay (Invitrogen), BRAF
# Assay type: biochemical
# Condition context: 1 μM compound, Z′-LYTE method; read-out: % inhibition at 1 μM against BRAF
Measurement kind: inhibition at 1 µM

- Compound smiles: "O=C(Nc1cc(F)c(F)c(C(=O)c2ccc3ncc(N4CCOCC4)nc3c2)c1)c1cccc(C(F)(F)F)c1"
  inhibition at 1 µM: "< 70%"
- Compound smiles: "O=C(Nc1cccc(C(F)(F)F)c1)Nc1cc(F)c(F)c(C(=O)c2ccc3ncc(N4CCOCC4)nc3c2)c1"
  inhibition at 1 µM: "< 70%"
- Compound smiles: "Cn1cc(-c2cnc3ccc(C(=O)c4cccc(NC(=O)Nc5ccc(Cl)c(C(F)(F)F)c5)c4)cc3n2)cn1"
  inhibition at 1 µM: "70 to 89%"
- Compound smiles: "O=C(Nc1cccc(C(F)(F)F)c1)Nc1ccc(F)c(C(=O)c2ccc3nccnc3c2)c1"
  inhibition at 1 µM: "< 70%"
- Compound smiles: "O=C(Nc1cncc(Cl)c1)Nc1ccc(F)c(C(=O)c2ccc3ncc(N4CCOCC4)nc3c2)c1"
  inhibition at 1 µM: "> 89%"

Specify inhibition at 1 µM for O=C(Nc1ccc(F)c(C(=O)c2ccc3ncc(N4CCOCC4)nc3c2)c1)Nc1ccc(Cl)c(C(F)(F)F)c1 and stop.
< 70%

Complete the entry with inhibition at 1 µM for O=C(Nc1ccc(F)c(C(=O)c2ccc3nccnc3c2)c1)Nc1ccc(Cl)c(C(F)(F)F)c1
< 70%

---

Recorded inhibition at 1 µM by entry
# Measured on: BRAF V600E (Homo sapiens (Human), UniProt P15056, V600E)
# Sequence (P15056 whole entry V600E): as the sequence (P15056 whole entry) above, with V600E counted along it
# Procedure text: Z′-LYTE kinase inhibition assay (Invitrogen), BRAF V600E
# Type: biochemical
# Condition context: 1 μM compound, Z′-LYTE method; read-out: % inhibition at 1 μM against BRAF V600E

In the examples that follow, each entry is paired with its recorded inhibition at 1 µM.
- Compound smiles: "O=C(Nc1cccc(C(F)(F)F)c1)Nc1cc(F)c(F)c(C(=O)c2ccc3nccnc3c2)c1F"
  inhibition at 1 µM: "70 to 89%"
- Compound smiles: "O=C(Nc1cccc(C(=O)c2ccc3nccnc3c2)c1)Nc1cccc(C(F)(F)F)c1"
  inhibition at 1 µM: "70 to 89%"
- Compound smiles: "O=C(Nc1cccc(C(=O)c2ccc3nccnc3c2)c1)c1ccc(C(F)(F)F)c(Cl)c1"
  inhibition at 1 µM: "> 89%"
- Compound smiles: "O=C(Nc1cccc(C(=O)c2ccc3ncc(N4CCOCC4)nc3c2)c1)c1ccc(Cl)c(C(F)(F)F)c1"
  inhibition at 1 µM: "> 89%"
- Compound smiles: "O=C(Nc1cccc(Cl)c1)Nc1ccc(F)c(C(=O)c2ccc3nccnc3c2)c1"
  inhibition at 1 µM: "> 89%"
- Compound smiles: "O=C(Nc1ccc(F)cc1)Nc1ccc(F)c(C(=O)c2ccc3ncc(N4CCNCC4)nc3c2)c1"
  inhibition at 1 µM: "> 89%"

--- query ---
Fill in inhibition at 1 µM for record O=C(Nc1ccc(F)c(Cl)c1)Nc1ccc(F)c(C(=O)c2ccc3nccnc3c2)c1
> 89%

---

# Measured on: UniProtKB P15056
# Procedure text: Z′-LYTE kinase inhibition assay (Invitrogen), BRAF
# Type: biochemical
# Condition context: 1 μM compound, Z′-LYTE method; read-out: % inhibition at 1 μM against BRAF
Measurement kind: inhibition at 1 µM

Look up and report measured inhibition at 1 µM for this entry: O=C(Nc1ccc(F)c(C(=O)c2ccc3nccnc3c2)c1)c1cccc(C(F)(F)F)c1 [Compound C116]
70 to 89%

Respond only with inhibition at 1 µM recorded for O=C(Nc1ccc(Cl)c(C(F)(F)F)c1)Nc1ccc(F)c(C(=O)c2ccc3nccnc3c2)c1Cl [Compound C008]
< 70%

// fetch inhibition at 1 µM given entry O=C(Nc1cccc(C(=O)c2ccc3nccnc3c2)c1)c1ccc(Cl)c(C(F)(F)F)c1 [Compound C111]
< 70%

Determine from records and report inhibition at 1 µM for O=C(Nc1cccc(F)c1)Nc1cccc(C(=O)c2ccc3nccnc3c2)c1 [Compound C001]
70 to 89%

Quick one: give measured inhibition at 1 µM for O=C(Nc1cncc(F)c1)Nc1ccc(F)c(C(=O)c2ccc3ncc(N4CCOCC4)nc3c2)c1 [Compound C079]
> 89%

---

# Measured on: BRAF (Homo sapiens (Human), UniProt P15056)
# Procedure text: Z′-LYTE kinase inhibition assay (Invitrogen), BRAF
# Assay type: biochemical
# Condition context: 1 μM compound, Z′-LYTE method; read-out: % inhibition at 1 μM against BRAF
Measurement kind: inhibition at 1 µM

Reference set (2 entries):
- Compound smiles: "O=C(Nc1cccc(C(=O)c2ccc3nccnc3c2)c1)Nc1ccc(Cl)c(C(F)(F)F)c1"
  inhibition at 1 µM: "70 to 89%"
- Compound smiles: "O=C(Nc1ccnc(C(F)(F)F)c1)Nc1ccc(F)c(C(=O)c2ccc3ncc(N4CCOCC4)nc3c2)c1"
  inhibition at 1 µM: "> 89%"

Please give measured inhibition at 1 µM of the following entry: O=C(Nc1cccc(C(F)(F)F)c1)Nc1ccc(F)c(C(=O)c2ccc3ncc(N4CCNCC4)nc3c2)c1
> 89%

Read the entry O=C(Nc1cc(F)cc(C(=O)c2ccc3nccnc3c2)c1)Nc1ccc(Cl)c(C(F)(F)F)c1 and write its reported inhibition at 1 µM.
< 70%

Name the recorded inhibition at 1 µM of the item O=C(Nc1cccc(Cl)c1)Nc1cccc(C(=O)c2ccc3nccnc3c2)c1 in your answer.
70 to 89%

Quickly give me recorded inhibition at 1 µM for O=C(Nc1ccc(F)c(C(=O)c2ccc3ncc(N4CCOCC4)nc3c2)c1)c1ccc(Cl)c(C(F)(F)F)c1
< 70%

Give reported inhibition at 1 µM value for COc1cnc2ccc(C(=O)c3cc(NC(=O)Nc4ccc(F)cc4)ccc3F)cc2n1
70 to 89%

meta.source: patent US10759766B2
